Origin of measurements: paper PMC6018403

METHOD SUMMARY: Multi-component pharmacokinetic study of GQD, GQD-GC and single herb extracts in rats (plasma, LC/MS/MS)
Format: in vivo, Sprague-Dawley rats
ASSAY CONTEXT: male, Sprague-Dawley, rat, in vivo, po, 18.9 g/kg, GQD group: rats, oral GQD extract 18.9 g/kg, plasma; read-out: AUClast
REPORTED PROPERTY: AUC(0-t) (ng·h/mL)
Only the number, expressed in ng·h/mL, is required.

Worked cases, AUC(0-t) given:
>>> numeric_readout("O=C(/C=C/c1ccc(O[C@@H]2O[C@H](CO)[C@@H](O)[C@H](O)[C@H]2O)cc1)c1ccc(O)cc1O [Compound 27, isoliquiritin]")
11.9
>>> numeric_readout("COc1cc(-c2coc3c(C4OC(COC5OCC(O)(CO)C5O)C(O)C(O)C4O)c(O)ccc3c2=O)ccc1O (stereo not drawn) [Compound 37, 3'-methoxymirificin]")
86.3

Let us examine a further case.
Task: Name the reported AUC(0-t) value associated with the compound O=c1c(-c2ccc(O)cc2)coc2cc(O[C@@H]3O[C@H](CO)[C@@H](O)[C@H](O)[C@H]3O)ccc12 [Compound 1, Daidzin]
Result: 346

====

Listing of recorded Tmax by entry.
METHOD SUMMARY: Multi-component pharmacokinetic study of GQD, GQD-GC and single herb extracts in rats (plasma, LC/MS/MS)
Format: in vivo, Sprague-Dawley rats
ASSAY CONTEXT: male, Sprague-Dawley, rat; GC (Gan-Cao) group: rats, oral extract 2.36 g/kg, plasma; read-out: Tmax
Note: unit h is implicit; provide only the numeric part.

Study these solved cases before continuing.
>>> numeric_readout("O=C(/C=C/c1ccc(O)cc1)c1ccc(O)cc1O")
0.41
>>> numeric_readout("CC1(C)[C@@H](O[C@H]2O[C@H](C(=O)O)[C@@H](O)[C@H](O)[C@H]2O[C@@H]2O[C@H](C(=O)O)[C@@H](O)[C@H](O)[C@H]2O)CC[C@]2(C)[C@H]3C(=O)C=C4[C@@H]5C[C@@](C)(C(=O)O)CC[C@]5(C)CC[C@@]4(C)[C@]3(C)CC[C@@H]12")
5.89
>>> numeric_readout("COc1ccc(-c2coc3cc(O)ccc3c2=O)cc1")
0.33

Pending molecule:
Task: May I ask what Tmax has been recorded for CC1(C)[C@@H](O)CC[C@]2(C)[C@H]3C(=O)C=C4[C@@H]5C[C@@](C)(C(=O)O)CC[C@]5(C)CC[C@@]4(C)[C@]3(C)CC[C@@H]12 ?
Result: 13.4

====

# Lookup of reported Tmax keyed by entry
METHOD SUMMARY: Multi-component pharmacokinetic study of GQD, GQD-GC and single herb extracts in rats (plasma, LC/MS/MS)
Format: in vivo, Sprague-Dawley rats
ASSAY CONTEXT: male, Sprague-Dawley, rat, in vivo, po, 2.36 g/kg
Give your result in h as a bare value.

Worked set:
>>> numeric_readout("CC1(C(=O)O)CCC2(C)CCC3(C)C(=CC(=O)C4C5(C)CCC(OC6OC(C(=O)O)C(O)C(O)C6OC6OC(C(=O)O)C(O)C(O)C6O)C(C)(CO)C5CCC43C)C2C1 (stereo not drawn)")
3.7
>>> numeric_readout("O=C1C[C@@H](c2ccc(O[C@@H]3O[C@H](CO)[C@@H](O)[C@H](O)[C@H]3O)cc2)Oc2cc(O)ccc21")
1.34

Here is the next item to consider.
Task: Which Tmax value belongs to O=C1C[C@@H](c2ccc(O)cc2)Oc2cc(O)ccc21 ?
Result: 1
